# Assay type: in vivo, nude athymic mice
# Cond: athymic nude, mouse, whole blood, intravenous

- Smiles str: "C[N+](C)(C)CCOP(=O)([O-])OCCCCCCCCCCCCCCCCCCc1ccc(I)cc1"
  MRT (h): 99.2

----------
# Format: in vivo, nude athymic mice
# Cond: athymic nude, mouse, whole blood, intravenous
Measurement kind: Clearance (mL/min)

- Compound: "C[N+](C)(C)CCOP(=O)([O-])OCCCCCCCCCCCCCCCCCCc1ccc(I)cc1 [NM404, 18-(p-Iodophenyl)octadecylphosphocholine]"
  Data value: 0.333

----------
# Test method notes: Log D determination
# Format: physicochemical
# Cond: octanol/water, pH 7.4

- Molecule: "C[N+](C)(C)CCOP(=O)([O-])OCCCCCCCCCCCCCCCCCCc1ccc(I)cc1 [NM404, 18-(p-Iodophenyl)octadecylphosphocholine]"
  logD at 48 h: 2.07
